Assay: Selectivity index, ratio of CC50 for cytotoxicity against BALB/c mouse splenocyte to IC50 for immunosuppressive activity in BALB/c mouse splenocytes assessed as inhibition of LPS-induced B cell proliferation
Format: cell-based
Settings: read-out: Ratio CC50/IC50
Answer each item with its documented selectivity ratio.

Fill in reported selectivity ratio for this entry: OC[C@H](Cc1cc2c(cc1O)OCO2)[C@](O)(CO)Cc1cc2c(cc1O)OCO2 4.1

Fill in reported selectivity ratio for this entry: COc1cc2c(cc1O)O[C@H]1OC[C@H](Cc3cc4c(cc3O)OCO4)[C@H]1C2 6.8

Fill in reported selectivity ratio for this entry: COc1cc(C[C@H]2CO[C@@H]3Oc4cc5c(cc4C[C@H]23)OCO5)ccc1O 14.9

Fill in reported selectivity ratio for this entry: O=C(Cc1ccc2c(c1)OCO2)[C@H](CO)Cc1ccc2c(c1)OCO2 17.5

Fill in reported selectivity ratio for this entry: Oc1cc2c(cc1C[C@H]1CO[C@@H]3Oc4cc5c(cc4C[C@H]13)OCO5)OCO2 2.8

Where do the numbers come from? From ChEMBL document CHEMBL5321255.
